tested on: wild-type ZIKV (Ugandan MR766 strain) in Vero cells; experiment: ZIKV cytopathic effect (CPE) inhibition qHTS assay, CellTiter-Glo readout; type: cell-based, Zika virus; conditions: Zika virus, Vero, read-out: Log AC50 (M) (converted)
Field: AC50. Provide a value for each of the compounds that follow.
Express your answer in M, writing the number without its unit.

Which AC50 reading was recorded for the compound CC1OC(OC2C(OC(=O)[C@]34CCC(C)(C)C[C@H]3C3=CCC5[C@@]6(C)CC[C@H](OC7OC(C(=O)O)C(O)C(O)C7O)C(C)(C)C6CC[C@@]5(C)[C@]3(C)CC4O)OC(CO)C2O)C(O)C(O)C1OC1OCC(O)C(O)C1O (stereo partly drawn) [NCGC00381102-01] ?
1.55e-05

Reported AC50, compound CCNC(=O)Nc1ccc(-c2nc3c(c(N4CCOC[C@@H]4C)n2)CCN(c2ncccn2)C3)cc1 [NCGC00378864-01] : ____
2.06e-05

What value of AC50 has been recorded for this entry: C=C(C)C(=O)O[C@H]1[C@H]2C(=C)C(=O)O[C@@H]2C[C@@H](C)[C@@H]2O[C@@H]2C(=O)[C@](C)(O)[C@@H]1OC(=O)C(=C)C [NCGC00169479-03]
3.55e-05

For O=C1c2c(O[C@@H]3O[C@H](CO)[C@@H](O)[C@H](O)[C@H]3O)cc(O)cc2OC1(O)Cc1ccc(O)cc1 (stereo partly drawn) [NCGC00168800-03] , what is its reported AC50?
3.17e-05

Tell me the measured AC50 of CC(C)(O)CCc1ccc(OCc2cc(-c3cccc(OC(F)F)c3)c3ncccc3c2)cc1 [NCGC00249759-02] , please.
3.26e-05

Fill blank: measured AC50 of the compound CN(CC[C@H](N)CC(=O)N[C@H]1C=C[C@@H](n2ccc(N)nc2=O)O[C@@H]1C(=O)O)C(=N)N [NCGC00386414-01] is ____.
2.66e-06

AC50 for COC(=O)C12CCC(C)C(C)C1C1=CCC3C4(C)CCC(OC(C)=O)C(C)(C)C4CCC3(C)C1(C)CC2 (stereo not drawn) [NCGC00179932-02] ?
1.42e-05

Give its AC50 value. Item: C/C=C/c1ccc2oc(-c3ccc(O)c(OC)c3)c(C)c2c1 [NCGC00385078-01]
2.31e-05

Would you kindly share the measured AC50 for C=CC(=O)N1CCCN(c2cc(NCCC(=O)O)nc(-c3ccccn3)n2)CC1 [NCGC00420854-01] ?
5.8e-05

// query AC50 value for entry C/C=C(\C)C(=O)O[C@H]1[C@H](OC(C)=O)[C@]2(CO)[C@H](O)[C@H](O)[C@]3(C)C(=CCC4[C@@]5(C)CC[C@H](O[C@@H]6O[C@H](C(=O)O)[C@@H](O)[C@H](O[C@@H]7OC[C@H](O)[C@H](O[C@@H]8OC[C@H](O)[C@H](O)[C@H]8O)[C@H]7O)[C@H]6O[C@@H]6O[C@H](CO)[C@@H](O)[C@H](O)[C@H]6O)C(C)(C)C5CC[C@]43C)[C@@H]2CC1(C)C (stereo partly drawn) [NCGC00381072-01]
8.71e-06

Fill blank: measured AC50 of the compound CCOCCn1nc(CC)c2nc(N3CCC(C(=O)O)CC3)nc(Nc3cc(C)ccn3)c21 [NCGC00386619-01] is ____.
4.11e-05

Return reported AC50; argument: C=C1C(=O)O[C@@H]2C3C(=C(C)[C@@H](O)[C@@H](OC(=O)/C(=C/C)COC(C)=O)[C@@H]12)C(=O)[C@H]1O[C@@]31C (stereo partly drawn) [NCGC00168883-03]
3.17e-05

====

Exercise: state measured Efficacy for each of the compounds provided.
tested on: wild-type ZIKV (Ugandan MR766 strain) in Vero cells; test: ZIKV cytopathic effect (CPE) inhibition qHTS assay, CellTiter-Glo readout; type: cell-based, Zika virus
Keep it simple and answer with nothing but the number.

Record request: Efficacy value, item CCN(CC)C(=O)Nc1ccc(OCC(O)CNC(C)(C)C)c(C(C)=O)c1 (stereo not shown)
-33.868

Name the recorded Efficacy for CCC[S+](=O)([O-])Nc1ccc(F)c(C(=O)c2c[nH]c3ncc(-c4ccc(Cl)cc4)cc23)c1F .
-40.165

Query: Efficacy; subject: C=C1CC2OC(=O)C(=C)C2C(OC(=O)/C(C)=C\C)CC2(C)OC1=CC2=O (stereo not shown)
-115.469

Would you kindly share the measured Efficacy for O=C(O)C[C@H]1CC[C@H](c2ccc(-c3ccc(Nc4ccc(C(F)(F)F)nc4)cn3)cc2)CC1 ?
-46.182

Return reported Efficacy; argument: CC1=C(CO)C(=O)O[C@@H]([C@@H](C)[C@H]2CC[C@H]3[C@@H]4C[C@H]5O[C@]56[C@@H](O)C=CC(=O)[C@]6(C)[C@H]4CC[C@]23C)C1
-63.347

Query: Efficacy; subject: O=C1c2c(O[C@@H]3O[C@H](CO)[C@@H](O)[C@H](O)[C@H]3O)cc(O)cc2OC1(O)Cc1ccc(O)cc1 (stereo partly shown)
-41.876

What value of Efficacy has been recorded for this entry: CC(C)C(=O)c1cn(CC(=O)COc2ccc(Oc3ccccc3)cc2)c2ccc(C(=O)O)cc12
-17.195

====

tested on: wild-type ZIKV (Ugandan MR766 strain) in Vero cells; assay: ZIKV cytopathic effect (CPE) inhibition qHTS assay, CellTiter-Glo readout; format: cell-based, Zika virus; settings: Zika virus, Vero, read-out: Max response
Can you tell me Emax for the items I'm about to list?
Give the value in % but do not write % after it.

Please give the measured Emax for this compound: CC1(C)CC2C(O)C3=C(CC(C)(O)C2C1)C(=O)OC3 (stereo not shown)
3.01

Which Emax is listed for C=C1C(=O)O[C@@H]2/C=C(\CO)CC/C=C(/C=O)C[C@H](O)[C@@H]12 ?
-37.5

What does the record list as Emax for CC(C)c1c(O)ccc2c1CC[C@H]1C(C)(C)CCC[C@]21C ?
-36.8

I have this compound here, C=C(C)C(=O)O[C@H]1[C@H]2C(=C)C(=O)O[C@@H]2C[C@@H](C)/C=C\C(=O)[C@](C)(O)[C@@H]1OC(C)=O , and I need its recorded Emax.
-40.2

// query Emax value for entry Cc1cc(C)c(-c2csc(NC(=O)c3ccccc3)n2)c(C)c1
8.19

Give the measured Emax of C[C@H]1C(=O)N2c3ccccc3[C@@]3(O)C[C@@H]4C(=O)N[C@](C)(c5nc6ccccc6c(=O)n54)N1[C@@H]23 .
0.173

// query Emax value for entry Cc1cc2c(F)c(Oc3ncnn4cc(OCC(C)OC(=O)C(C)N)c(C)c34)ccc2[nH]1 (stereo not shown)
-49.7

====

tested on: wild-type ZIKV (Ugandan MR766 strain) in Vero cells; assay: ZIKV cytopathic effect (CPE) inhibition qHTS assay, CellTiter-Glo readout; type: cell-based, Zika virus; conditions: difference between neutral response and maximum compound response
Returns one of condition met or condition not met; condition met when Efficacy is >= -40.

Has C=C(C)C(C)C1OC23CC4(CO2)C(CCC2C5(C)CCC(OC6OCC(O)C(OC7OC(CO)C(O)C(OC8OCC(O)C(O)C8O)C7O)C6OC6OC(CO)C(O)C6O)C(C)(C)C5CCC24C)C3C(C)(O)C1OC(C)=O (stereo not shown) [NCGC00384732-01] a recorded Efficacy greater than or equal to -40?
condition met

Please indicate if the recorded Efficacy for C[C@H]1CC[C@@]2(OC1)O[C@H]1CC3C4CC[C@H]5C[C@@H](O[C@@H]6O[C@H](CO)[C@H](O[C@@H]7O[C@H](CO)[C@@H](O)[C@H](O[C@@H]8OC[C@@H](O)[C@H](O)[C@H]8O)[C@H]7O[C@@H]7O[C@H](CO)[C@@H](O)[C@H](O)[C@H]7O)[C@H](O)[C@H]6O)[C@H](O)C[C@]5(C)C4=CC(=O)[C@]3(C)[C@H]1[C@@H]2C (stereo partly shown) [NCGC00385095-01] meets or exceeds -40.
condition met

Does the reported Efficacy for C=C1CC[C@@]2(OC1)O[C@H]1CC3C4CC=C5C[C@@H](O[C@@H]6O[C@@H](C)[C@H](O)[C@@H](O)[C@H]6O)C[C@@H](O[C@@H]6O[C@H](C)[C@H](O)[C@H](O)[C@H]6O[C@@H]6O[C@@H](C)[C@H](O)[C@@H](O)[C@H]6O)[C@]5(C)C4CC[C@]3(C)[C@H]1[C@@H]2C (stereo partly shown) [NCGC00384710-01] fall at or above the -40 mark?
condition met

Test whether the compound C[C@H]1CC[C@@]2(OC1)O[C@H]1CC3C4CC=C5C[C@H](O)C[C@@H](O[C@@H]6O[C@@H](C)[C@H](O)[C@@H](O)[C@H]6O[C@@H]6O[C@@H](C)[C@H](O)[C@@H](O)[C@H]6O)[C@]5(C)C4CC[C@]3(C)[C@H]1[C@@H]2C (stereo partly shown) [NCGC00380128-01, Ophiopogonin B] records Efficacy of -40 or higher.
condition met

Identify whether the reported Efficacy of the following compound is -40 or greater: CC1=CC(=O)[C@@H](O)[C@]2(C)C3[C@@H](O)[C@@H]4OC(=O)[C@@H]([C@H]4C)[C@]3(C)C(=O)[C@H](O)[C@@H]12 (stereo partly shown) [NCGC00384766-01]
condition not met

Given the entry C=C[C@H]1[C@H](O[C@@H]2O[C@H](CO)[C@@H](O)[C@H](O)[C@H]2O)OC=C2C(=O)OCC[C@H]21 [NCGC00180755-03] , answer whether its Efficacy meets or surpasses -40.
condition not met
